# Test summary: Aqueous solubility of the compound
# Type: physicochemical
# Reported conditions: buffer
Measured solubility accompanies every entry in the list below.

{"Given smiles": "OCc1n(Cc2ccc3ccccc3c2)cc[n+]1Cc1ccc2ccccc2c1.[Br-]", "solubility": "< 0.5 mM"}
{"Given smiles": "CCCCc1n(Cc2ccc3ccccc3n2)cc[n+]1Cc1ccc2ccccc2c1.[Cl-]", "solubility": "> 10 mM"}
{"Given smiles": "[Br-].c1ccc(-c2n(Cc3ccc4ccccc4c3)cc[n+]2Cc2ccc3ccccc3c2)cc1", "solubility": "< 0.5 mM"}
{"Given smiles": "CCCCc1n(Cc2ccc3ccccc3n2)cc[n+]1Cc1ccc2ccccc2n1.[Cl-]", "solubility": "> 80 mM"}
{"Given smiles": "[Cl-].c1ccc(-c2n(Cc3ccc4ccccc4n3)cc[n+]2Cc2ccc3ccccc3n2)cc1", "solubility": "> 80 mM"}
{"Given smiles": "CCCc1n(Cc2ccc3ccccc3n2)cc[n+]1Cc1ccc2ccccc2c1.[Cl-]", "solubility": "> 10 mM"}
{"Given smiles": "CCc1n(Cc2ccc3ccccc3c2)cc[n+]1Cc1ccc2ccccc2n1.[Cl-]", "solubility": "> 10 mM"}
{"Given smiles": "CCCc1n(Cc2ccc3ccccc3n2)cc[n+]1Cc1ccc2ccccc2n1.[Cl-]", "solubility": "> 80 mM"}
{"Given smiles": "CCc1n(Cc2ccc3ccccc3n2)cc[n+]1Cc1ccc2ccccc2n1.[Cl-]", "solubility": "> 80 mM"}
{"Given smiles": "CCc1n(Cc2ccc3ccccc3n2)cc[n+]1Cc1ccc2ccccc2c1.[Br-]", "solubility": "5 mM"}
{"Given smiles": "[Cl-].c1ccc(-c2n(Cc3ccc4ccccc4n3)cc[n+]2Cc2ccc3ccccc3c2)cc1", "solubility": "> 10 mM"}
{"Given smiles": "Cc1n(Cc2ccc3ccccc3n2)cc[n+]1Cc1ccc2ccccc2n1.[Cl-]", "solubility": "> 80 mM"}
{"Given smiles": "Cc1n(Cc2ccc3ccccc3n2)cc[n+]1Cc1ccc2ccccc2c1.[Br-]", "solubility": "< 5 mM"}

* * *

# Test summary: Growth inhibition of human NCI-H322M cells measured after 48 hrs by sulforhodamine B assay
# Assay type: functional
Rule: GI50 below 3 µM gives t. Equal to or above 3 µM gives f.

{"Given smiles": "c1ccc2cc(Cn3cc[n+](Cc4ccc5ccccc5c4)c3)ccc2c1", "Qualitative label": "f"}
{"Given smiles": "CCc1n(Cc2ccc3ccccc3n2)cc[n+]1Cc1ccc2ccccc2c1.[Br-]", "Qualitative label": "t"}
{"Given smiles": "Cc1n(Cc2ccc3ccccc3n2)cc[n+]1Cc1ccc2ccccc2c1.[Br-]", "Qualitative label": "f"}
{"Given smiles": "CCCc1n(Cc2ccc3ccccc3n2)cc[n+]1Cc1ccc2ccccc2n1.[Cl-]", "Qualitative label": "f"}
{"Given smiles": "CCCc1n(Cc2ccc3ccccc3n2)cc[n+]1Cc1ccc2ccccc2c1.[Cl-]", "Qualitative label": "f"}

* * *

# Test summary: Growth inhibition of human NCI-H226 cells measured after 48 hrs by sulforhodamine B assay
# Type: functional
# Reported conditions: NCI-H226, 48 h
Measured TGI accompanies every entry in the list below.
Reported endpoint: TGI (µM)

{"Given smiles": "CCc1n(Cc2ccc3ccccc3n2)cc[n+]1Cc1ccc2ccccc2n1.[Cl-]", "Reported endpoint": "TGI", "Quantity unit": "µM", "Test result": 30.8}
{"Given smiles": "CCc1n(Cc2ccc3ccccc3n2)cc[n+]1Cc1ccc2ccccc2c1.[Br-]", "Reported endpoint": "TGI", "Quantity unit": "µM", "Test result": 4.87}
{"Given smiles": "CCCCc1n(Cc2ccc3ccccc3n2)cc[n+]1Cc1ccc2ccccc2n1.[Cl-]", "Reported endpoint": "TGI", "Quantity unit": "µM", "Test result": 13.6}
{"Given smiles": "CCCc1n(Cc2ccc3ccccc3n2)cc[n+]1Cc1ccc2ccccc2n1.[Cl-]", "Reported endpoint": "TGI", "Quantity unit": "µM", "Test result": 34.8}
{"Given smiles": "[Br-].c1ccc(-c2n(Cc3ccc4ccccc4c3)cc[n+]2Cc2ccc3ccccc3c2)cc1", "Reported endpoint": "TGI", "Quantity unit": "µM", "Test result": 2.97}
{"Given smiles": "CCCc1n(Cc2ccc3ccccc3n2)cc[n+]1Cc1ccc2ccccc2c1.[Cl-]", "Reported endpoint": "TGI", "Quantity unit": "µM", "Test result": 7.6}
{"Given smiles": "Cc1n(Cc2ccc3ccccc3n2)cc[n+]1Cc1ccc2ccccc2c1.[Br-]", "Reported endpoint": "TGI", "Quantity unit": "µM", "Test result": 10.9}
{"Given smiles": "c1ccc2cc(Cn3cc[n+](Cc4ccc5ccccc5c4)c3)ccc2c1", "Reported endpoint": "TGI", "Quantity unit": "µM", "Test result": 14.3}
